# assay.system: Dfd (Deformed);Exd (Extradenticle) (Drosophila melanogaster?;Drosophila …, UniProt P07548;P40427 1-586;1-376, |)
# Sequence (P07548 whole entry, chain 1 of 2): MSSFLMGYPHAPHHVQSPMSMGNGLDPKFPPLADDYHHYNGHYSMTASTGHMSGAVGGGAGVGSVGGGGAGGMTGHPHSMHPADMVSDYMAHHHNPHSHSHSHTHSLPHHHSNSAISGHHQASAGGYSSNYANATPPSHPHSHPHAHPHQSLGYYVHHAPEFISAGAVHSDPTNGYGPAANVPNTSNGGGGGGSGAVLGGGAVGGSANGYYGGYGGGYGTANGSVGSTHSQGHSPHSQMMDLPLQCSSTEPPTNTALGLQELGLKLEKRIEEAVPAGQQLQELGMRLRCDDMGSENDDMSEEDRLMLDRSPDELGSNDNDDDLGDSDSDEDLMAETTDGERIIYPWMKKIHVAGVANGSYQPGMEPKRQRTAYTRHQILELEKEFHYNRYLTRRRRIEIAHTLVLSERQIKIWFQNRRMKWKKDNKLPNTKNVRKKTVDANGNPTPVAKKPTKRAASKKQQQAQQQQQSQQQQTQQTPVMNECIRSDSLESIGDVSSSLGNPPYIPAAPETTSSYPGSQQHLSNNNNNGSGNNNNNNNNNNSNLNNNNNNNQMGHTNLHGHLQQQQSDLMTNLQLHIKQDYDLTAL
# Sequence (P40427 whole entry, chain 2 of 2): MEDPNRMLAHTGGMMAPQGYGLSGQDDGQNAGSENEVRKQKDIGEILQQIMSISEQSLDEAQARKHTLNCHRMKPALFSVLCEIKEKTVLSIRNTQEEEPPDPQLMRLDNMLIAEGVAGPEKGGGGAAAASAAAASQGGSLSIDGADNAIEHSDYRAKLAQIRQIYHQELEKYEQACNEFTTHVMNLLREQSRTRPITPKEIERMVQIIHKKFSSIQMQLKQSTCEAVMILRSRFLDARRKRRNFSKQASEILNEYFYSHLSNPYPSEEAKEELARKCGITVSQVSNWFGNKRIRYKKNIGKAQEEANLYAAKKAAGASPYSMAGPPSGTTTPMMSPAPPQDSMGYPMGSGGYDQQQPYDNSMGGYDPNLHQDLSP
# method.description: EMSA; Hth presence not stated; review file prints 6.85 and 6.65; 20 mM HEPES pH 7.9, 1.4 mM MgCl2, 1 mM ZnSO4, 40 mM KCl, 0.1 mM EGTA, 5% glycerol, 10 mM DTT, 0.1% NP40, 200 ng poly(dI-dC), 3 ug BSA, 2 pmol Cy5 dsDNA in 30 ul, on ice 20 min; 1% agarose-TBE gel at 4 C
# recorded.conditions: protein: recombinant;recombinant; tags: GST (pGEX-6P);His-myc; copies: 1;1; label: 5'-Cy5; blunt
endpoint: pKd
Quick note: pKd means taking -log10 of the concentration in moles per liter.

Entry oligo-E-11-H (dsDNA) DNA 1: CTTCTTCGGATGATTAATGACGCGCGTTCAACAT DNA 2: ATGTTGAACGCGCGTCATTAATCATCCGAAGAAG : reported pKd = ? 8.17
